experimental.details: Selectivity index, ratio of IC50 for dark toxicity in human MIAPaCa2 cells to IC50 for phototoxicity in human MIAPaCa2 cells
Type: cell-based, MIA PaCa-2
measurement.setup: read-out: Ratio IC50
quantity.name: selectivity ratio
One number for each entry.

The value of selectivity ratio measured for the compound C=Cc1c(C)c2cc3nc(c(CC(=O)OC)c4[nH]c(cc5nc(cc1[nH]2)C(C)=C5CC)c(C)c4C(=O)NCCOCCOCCNC(=O)CCCC(=O)Oc1ccc(/C=C/C(=O)CC(=O)/C=C/c2ccc(O)c(OC)c2)cc1OC)C(CCC(=O)OC)C3C (configuration not stated) turned out to be 2370

====

experimental.details: Dark toxicity in human PANC1 cells assessed as reduction in cell viability after 72 hrs by MTT assay
Assay type: cell-based, PANC-1
Consider the following molecules; for each one, report its IC50 at 72 h.

// below: answered molecules
molecule="C=Cc1c(C)c2cc3nc(c(CC(=O)O)c4[nH]c(cc5nc(cc1[nH]2)C(C)=C5CC)c(C)c4C(=O)O)C(CCC(=O)O)C3C (stereo not given)" endpoint_result="67 µM"
molecule="C=Cc1c(C)c2cc3nc(c(CC(=O)OC)c4[nH]c(cc5nc(cc1[nH]2)C(C)=C5CC)c(C)c4C(=O)NCCOCCOCCNC(=O)CCCC(=O)Oc1ccc(/C=C/C(=O)CC(=O)/C=C/c2ccc(O)c(OC)c2)cc1OC)C(CCC(=O)OC)C3C (stereo not given)" endpoint_result="> 300 µM"
molecule="C=Cc1c(C)c2cc3nc(c(CC(=O)OC)c4[nH]c(cc5nc(cc1[nH]2)C(C)=C5CC)c(C)c4C(=O)NCCCOCCOCCOCCCNC(=O)CCCC(=O)Oc1ccc(/C=C/C(=O)CC(=O)/C=C/c2ccc(O)c(OC)c2)cc1OC)C(CCC(=O)OC)C3C (stereo not given)" endpoint_result="> 300 µM"
molecule="C=Cc1c(C)c2cc3nc(c(CC(=O)OC)c4[nH]c(cc5nc(cc1[nH]2)C(C)=C5CC)c(C)c4C(=O)NCCCCCCNC(=O)CCCC(=O)Oc1ccc(/C=C/C(=O)CC(=O)/C=C/c2ccc(O)c(OC)c2)cc1OC)C(CCC(=O)OC)C3C (stereo not given)" endpoint_result="> 300 µM"

Moving on to another molecule below.
Short answer for C=Cc1c(C)c2cc3nc(c(CC(=O)OC)c4[nH]c(cc5nc(cc1[nH]2)C(C)=C5CC)c(C)c4C(=O)NCCCNC(=O)CCCC(=O)Oc1ccc(/C=C/C(=O)CC(=O)/C=C/c2ccc(O)c(OC)c2)cc1OC)C(CCC(=O)OC)C3C (stereo not given) : IC50 at 72 h was > 300 µM

====

experimental.details: Selectivity index, ratio of IC50 for dark toxicity in human PANC1 cells to IC50 for phototoxicity in human PANC1 cells
Format: cell-based, PANC-1
measurement.setup: read-out: Ratio IC50
What selectivity ratio was measured for each of the following?

Worked examples follow.
molecule="C=Cc1c(C)c2cc3nc(c(CC(=O)OC)c4[nH]c(cc5nc(cc1[nH]2)C(C)=C5CC)c(C)c4C(=O)NCCCCCCNC(=O)CCCC(=O)Oc1ccc(/C=C/C(=O)CC(=O)/C=C/c2ccc(O)c(OC)c2)cc1OC)C(CCC(=O)OC)C3C (stereo not given)" quantity_name="selectivity ratio" endpoint_result="> 6.58"
molecule="C=Cc1c(C)c2cc3nc(c(CC(=O)OC)c4[nH]c(cc5nc(cc1[nH]2)C(C)=C5CC)c(C)c4C(=O)NCCOCCOCCNC(=O)CCCC(=O)Oc1ccc(/C=C/C(=O)CC(=O)/C=C/c2ccc(O)c(OC)c2)cc1OC)C(CCC(=O)OC)C3C (stereo not given)" quantity_name="selectivity ratio" endpoint_result="> 7500"
molecule="C=Cc1c(C)c2cc3nc(c(CC(=O)OC)c4[nH]c(cc5nc(cc1[nH]2)C(C)=C5CC)c(C)c4C(=O)NCCCNC(=O)CCCC(=O)Oc1ccc(/C=C/C(=O)CC(=O)/C=C/c2ccc(O)c(OC)c2)cc1OC)C(CCC(=O)OC)C3C (stereo not given)" quantity_name="selectivity ratio" endpoint_result="> 65.5"
molecule="C=Cc1c(C)c2cc3nc(c(CC(=O)OC)c4[nH]c(cc5nc(cc1[nH]2)C(C)=C5CC)c(C)c4C(=O)NCCCOCCOCCOCCCNC(=O)CCCC(=O)Oc1ccc(/C=C/C(=O)CC(=O)/C=C/c2ccc(O)c(OC)c2)cc1OC)C(CCC(=O)OC)C3C (stereo not given)" quantity_name="selectivity ratio" endpoint_result="> 19.1"

For C=Cc1c(C)c2cc3nc(c(CC(=O)O)c4[nH]c(cc5nc(cc1[nH]2)C(C)=C5CC)c(C)c4C(=O)O)C(CCC(=O)O)C3C (stereo not given) the molecule record lists selectivity ratio as 6.6

====

experimental.details: Selectivity index, ratio of IC50 for dark toxicity in human AsPC1 cells to IC50 for phototoxicity in human AsPC1 cells
Type: cell-based
measurement.setup: read-out: Ratio IC50
I'd be grateful if you could share measured selectivity ratio for these entries.
Answers are plain numbers.

As a guide, the following entries are already answered.
molecule="C=Cc1c(C)c2cc3nc(c(CC(=O)OC)c4[nH]c(cc5nc(cc1[nH]2)C(C)=C5CC)c(C)c4C(=O)NCCOCCOCCNC(=O)CCCC(=O)Oc1ccc(/C=C/C(=O)CC(=O)/C=C/c2ccc(O)c(OC)c2)cc1OC)C(CCC(=O)OC)C3C (stereo not drawn)" endpoint_result=4650
molecule="C=Cc1c(C)c2cc3nc(c(CC(=O)O)c4[nH]c(cc5nc(cc1[nH]2)C(C)=C5CC)c(C)c4C(=O)O)C(CCC(=O)O)C3C (stereo not drawn)" endpoint_result=6.45

The molecule listed as C=Cc1c(C)c2cc3nc(c(CC(=O)OC)c4[nH]c(cc5nc(cc1[nH]2)C(C)=C5CC)c(C)c4C(=O)NCCCCCCNC(=O)CCCC(=O)Oc1ccc(/C=C/C(=O)CC(=O)/C=C/c2ccc(O)c(OC)c2)cc1OC)C(CCC(=O)OC)C3C (stereo not drawn) shows selectivity ratio equal to 28.3

====

experimental.details: Dark toxicity in human AsPC1 cells assessed as reduction in cell viability after 72 hrs by MTT assay
Type: cell-based
Hi there, I'd appreciate the recorded IC50 at 72 h for every entry that follows.
Numbers only, in µM.

compound="C=Cc1c(C)c2cc3nc(c(CC(=O)OC)c4[nH]c(cc5nc(cc1[nH]2)C(C)=C5CC)c(C)c4C(=O)NCCCCCCNC(=O)CCCC(=O)Oc1ccc(/C=C/C(=O)CC(=O)/C=C/c2ccc(O)c(OC)c2)cc1OC)C(CCC(=O)OC)C3C (stereo not drawn)" unit_tag=µM endpoint_result=285

Now take the following compound into account.
Field IC50 at 72 h (entry C=Cc1c(C)c2cc3nc(c(CC(=O)O)c4[nH]c(cc5nc(cc1[nH]2)C(C)=C5CC)c(C)c4C(=O)O)C(CCC(=O)O)C3C (stereo not drawn) ) reads 126

====

Exercise: state measured selectivity ratio for each of the molecules provided.
experimental.details: Selectivity index, ratio of IC50 for dark toxicity in human AsPC1 cells to IC50 for phototoxicity in human AsPC1 cells
Type: cell-based
measurement.setup: read-out: Ratio IC50

molecule="C=Cc1c(C)c2cc3nc(c(CC(=O)OC)c4[nH]c(cc5nc(cc1[nH]2)C(C)=C5CC)c(C)c4C(=O)NCCCNC(=O)CCCC(=O)Oc1ccc(/C=C/C(=O)CC(=O)/C=C/c2ccc(O)c(OC)c2)cc1OC)C(CCC(=O)OC)C3C (configuration not stated)" quantity_name="selectivity ratio" endpoint_result="> 52.3"

// switching to the query molecule
Value of measured selectivity ratio for the entry C=Cc1c(C)c2cc3nc(c(CC(=O)OC)c4[nH]c(cc5nc(cc1[nH]2)C(C)=C5CC)c(C)c4C(=O)NCCCOCCOCCOCCCNC(=O)CCCC(=O)Oc1ccc(/C=C/C(=O)CC(=O)/C=C/c2ccc(O)c(OC)c2)cc1OC)C(CCC(=O)OC)C3C (configuration not stated) : 32.5

====

experimental.details: Dark toxicity in human AsPC1 cells assessed as reduction in cell viability after 72 hrs by MTT assay
Format: cell-based
Record form. Attribute: IC50 at 72 h. Fill in for each entry.
Answers are plain numbers, in µM.

compound="C=Cc1c(C)c2cc3nc(c(CC(=O)OC)c4[nH]c(cc5nc(cc1[nH]2)C(C)=C5CC)c(C)c4C(=O)NCCCOCCOCCOCCCNC(=O)CCCC(=O)Oc1ccc(/C=C/C(=O)CC(=O)/C=C/c2ccc(O)c(OC)c2)cc1OC)C(CCC(=O)OC)C3C (configuration not stated)" endpoint_result=193

// next entry
Per the records, this compound ( C=Cc1c(C)c2cc3nc(c(CC(=O)OC)c4[nH]c(cc5nc(cc1[nH]2)C(C)=C5CC)c(C)c4C(=O)NCCOCCOCCNC(=O)CCCC(=O)Oc1ccc(/C=C/C(=O)CC(=O)/C=C/c2ccc(O)c(OC)c2)cc1OC)C(CCC(=O)OC)C3C (configuration not stated) ) has IC50 at 72 h equal to 186
